System: 454973-116-R2-J3-PDC complex spheroid viability
procedure text: Anticancer human tumor 454973-116-R2-J3-PDC patient-derived pancreatic carcinoma cell line growth inhibition [POLQ]; active = viability on the fitted dose curve at most 10% of control; inactive = the rest
recorded conditions: second compound 0.316 µM; first compound 0.1 µM
# output must be one of active, inactive

COc1cc(C2c3cc4c(cc3C(OC3OC5COC(C)OC5C(O)C3O)C3COC(=O)C23)OCO4)cc(OC)c1O (stereo not given) + Cc1cccc(N(C)C(=O)C2C(O)CCN2c2nc(C)cc(C(F)(F)F)c2C#N)c1
inactive
COc1cc(C2c3cc4c(cc3C(OC3OC5COC(C)OC5C(O)C3O)C3COC(=O)C23)OCO4)cc(OC)c1O (stereo not given) + COC1C(OC(N)=O)C(O)C(Oc2ccc3c(O)c(NC(=O)c4ccc(O)c(CC=C(C)C)c4)c(=O)oc3c2C)OC1(C)C
inactive
COc1ccc([C@@H](O)c2cc(-c3ncnc4cc(N5CCOCC5)ccc34)c(F)cc2Cl)nn1 + Nc1ccc(C#CCN(C(=O)Cc2ncc(C(F)(F)F)cc2C(F)(F)F)c2ccc(F)cc2)nn1
inactive
Cn1ncnc1[C@H]1c2n[nH]c(=O)c3cc(F)cc(c23)N[C@@H]1c1ccc(F)cc1 + Cc1cccc(N(C)C(=O)C2C(O)CCN2c2nc(C)cc(C(F)(F)F)c2C#N)c1
inactive
COc1cc(C2c3cc4c(cc3C(OC3OC5COC(C)OC5C(O)C3O)C3COC(=O)C23)OCO4)cc(OC)c1O (stereo not given) + Nc1ccc(C#CCN(C(=O)Cc2ncc(C(F)(F)F)cc2C(F)(F)F)c2ccc(F)cc2)nn1
inactive

**Query** // return assay outcome for O=C(c1cc(Cc2n[nH]c(=O)c3ccccc23)ccc1F)N1CCN(C(=O)C2CC2)CC1 + Cc1cccc(N(C)C(=O)C2C(O)CCN2c2nc(C)cc(C(F)(F)F)c2C#N)c1
**Result** inactive

**Query** Quick one: C=CCn1c(=O)c2cnc(Nc3ccc(N4CCN(C)CC4)cc3)nc2n1-c1cccc(C(C)(C)O)n1 + Nc1ccc(C#CCN(C(=O)Cc2ncc(C(F)(F)F)cc2C(F)(F)F)c2ccc(F)cc2)nn1
**Result** inactive

**Query** And for Nc1ccn(C2OC(CO)C(O)C2(F)F)c(=O)n1 (stereo not given) + Nc1ccc(C#CCN(C(=O)Cc2ncc(C(F)(F)F)cc2C(F)(F)F)c2ccc(F)cc2)nn1 ?
**Result** active

**Query** # iterate: CC1COCCN1c1cc(C2(O)CC3CCC(C2)O3)c2cnn(-c3ccn[nH]3)c2n1 (stereo not given) + COC1C(OC(N)=O)C(O)C(Oc2ccc3c(O)c(NC(=O)c4ccc(O)c(CC=C(C)C)c4)c(=O)oc3c2C)OC1(C)C
**Result** inactive

**Query** One more compound: C=CC(=O)N1CCN(c2nc(=O)n(-c3c(C)ccnc3C(C)C)c3nc(-c4c(O)cccc4F)c(F)cc23)C(C)C1 (stereo not given) + Cc1cccc(N(C)C(=O)C2C(O)CCN2c2nc(C)cc(C(F)(F)F)c2C#N)c1
**Result** inactive

###

Answer each item with its documented viability, T/C.
System: 454973-116-R2-J3-PDC complex spheroid viability
procedure text: Anticancer human tumor 454973-116-R2-J3-PDC cell line growth inhibition [POLQ];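 note: spheroids exposed to drugs for seven days before measurement; percent viability relative to DMSO vehicle control wells taken as 100%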
recorded conditions: second compound 3.16 µM; first compound 0.1 µM; stronger effect = lower value
Answers are plain numbers, in %.

C=CC(=O)N1CCN(c2nc(=O)n(-c3c(C)ccnc3C(C)C)c3nc(-c4c(O)cccc4F)c(F)cc23)C(C)C1 (configuration not stated) + Nc1ccc(C#CCN(C(=O)Cc2ncc(C(F)(F)F)cc2C(F)(F)F)c2ccc(F)cc2)nn1
118
O=c1[nH]cc(F)c(=O)[nH]1 + Nc1ccc(C#CCN(C(=O)Cc2ncc(C(F)(F)F)cc2C(F)(F)F)c2ccc(F)cc2)nn1
117
CCc1cc2c(N3CCc4c(cc(Cn5ccnc5)cc4-c4cn(C)nc4C(F)(F)F)C3=O)ccnc2c(OC)n1 + Nc1ccc(C#CCN(C(=O)Cc2ncc(C(F)(F)F)cc2C(F)(F)F)c2ccc(F)cc2)nn1
99.2
CCc1c2c(nc3ccc(O)cc13)-c1cc3c(c(=O)n1C2)COC(=O)[C@]3(O)CC + Nc1ccc(C#CCN(C(=O)Cc2ncc(C(F)(F)F)cc2C(F)(F)F)c2ccc(F)cc2)nn1
4.06
CNCc1ccc(-c2[nH]c3cc(F)cc4c3c2CCNC4=O)cc1 + COC1C(OC(N)=O)C(O)C(Oc2ccc3c(O)c(NC(=O)c4ccc(O)c(CC=C(C)C)c4)c(=O)oc3c2C)OC1(C)C
104
CCc1cc2c(N3CCc4c(cc(Cn5ccnc5)cc4-c4cn(C)nc4C(F)(F)F)C3=O)cc(C)nc2c(OC)n1 + Nc1ccc(C#CCN(C(=O)Cc2ncc(C(F)(F)F)cc2C(F)(F)F)c2ccc(F)cc2)nn1
95.3

# return viability, T/C for each item in the list
1. CNCc1ccc(-c2[nH]c3cc(F)cc4c3c2CCNC4=O)cc1 + Cc1cccc(N(C)C(=O)C2C(O)CCN2c2nc(C)cc(C(F)(F)F)c2C#N)c1
2. CC[C@@]1(O)C(=O)OCc2c1cc1n(c2=O)Cc2cc3c(CN(C)C)c(O)ccc3nc2-1 + Nc1ccc(C#CCN(C(=O)Cc2ncc(C(F)(F)F)cc2C(F)(F)F)c2ccc(F)cc2)nn1

**Result**
[105, 10.3]

The reported numbers originate from PubChem BioAssay AID1963846.
